biological target: Delta-type opioid receptor (Rattus norvegicus, UniProt P33533); test: Ability to displace [3H]DADL from delta opioid receptor
Sequence (P33533 whole entry): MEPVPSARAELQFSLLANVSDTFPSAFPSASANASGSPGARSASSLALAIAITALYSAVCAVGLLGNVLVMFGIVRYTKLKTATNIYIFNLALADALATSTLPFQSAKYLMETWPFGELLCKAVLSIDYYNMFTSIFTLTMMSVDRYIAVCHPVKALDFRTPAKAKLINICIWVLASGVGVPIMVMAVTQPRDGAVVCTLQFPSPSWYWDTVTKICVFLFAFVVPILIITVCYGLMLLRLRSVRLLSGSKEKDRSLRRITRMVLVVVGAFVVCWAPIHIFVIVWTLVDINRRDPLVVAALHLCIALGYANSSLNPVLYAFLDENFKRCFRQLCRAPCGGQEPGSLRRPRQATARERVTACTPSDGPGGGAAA
Collected Ki values appear next to each entry.
Answer format: numeric, nM implied, no suffix.

Below, each entry is followed by its recorded Ki result.
O[C@@]12Cc3c([nH]c4ccccc34)C3Oc4c(OCCc5ccccc5)ccc5c4[C@@]31CCN(CC1CC1)[C@@H]2C5 (some centres undefined)    1040
COc1ccc2c3c1OC1c4[nH]c5ccccc5c4C[C@@]4(O)[C@@H](C2)N(CC2CC2)CC[C@]314 (some centres undefined)    6.57
O[C@@]12Cc3c([nH]c4ccccc34)C3Oc4c(OCc5ccccc5)ccc5c4[C@@]31CCN(CC1CC1)[C@@H]2C5 (some centres undefined)    103

Could you now look at the following molecule, please?
Query: Give Ki; test system Delta-type opioid receptor (Rattus norvegicus, UniProt P33533); molecule O[C@@]12Cc3c([nH]c4ccccc34)C3Oc4c(OCCCc5ccccc5)ccc5c4[C@@]31CCN(CC1CC1)[C@@H]2C5 (some centres undefined)
Reply: 99
